Assay: clinical
Conditions: human, serum, iv, 1500 mg; SD
MEASURED PROPERTY: level at 0.5 h (µg/mL)
Express the result in µg/mL but write the number alone.

Q. // returns reported level at 0.5 h for input CN[C@H]1C(=O)N[C@@H]2Cc3ccc(cc3)Oc3cc4cc(c3O[C@@H]3O[C@H](C(=O)O)[C@@H](O)[C@H](O)[C@H]3NC(=O)CCCCCCCCC(C)C)Oc3ccc(cc3Cl)[C@@H](O)[C@@H]3NC(=O)[C@H](NC(=O)[C@@H]4NC(=O)[C@@H](NC2=O)c2cc(cc(O)c2Cl)Oc2cc1ccc2O)c1ccc(O)c(c1)-c1c(O[C@H]2O[C@H](CO)[C@@H](O)[C@H](O)[C@@H]2O)cc(O)cc1[C@@H](C(=O)NCCCN(C)C)NC3=O
A. 218

* * *

Assay: clinical
Conditions: human, serum, iv, 1500 mg; SD
MEASURED PROPERTY: level at 1008 h (ng/mL)
Express the result in ng/mL but write the number alone.

Q. // returns reported level at 1008 h for input CN[C@H]1C(=O)N[C@@H]2Cc3ccc(cc3)Oc3cc4cc(c3O[C@@H]3O[C@H](C(=O)O)[C@@H](O)[C@H](O)[C@H]3NC(=O)CCCCCCCCC(C)C)Oc3ccc(cc3Cl)[C@@H](O)[C@@H]3NC(=O)[C@H](NC(=O)[C@@H]4NC(=O)[C@@H](NC2=O)c2cc(cc(O)c2Cl)Oc2cc1ccc2O)c1ccc(O)c(c1)-c1c(O[C@H]2O[C@H](CO)[C@@H](O)[C@H](O)[C@@H]2O)cc(O)cc1[C@@H](C(=O)NCCCN(C)C)NC3=O
A. 13200

* * *

Assay: clinical
Conditions: human, serum, iv, 1500 mg; SD
MEASURED PROPERTY: level at 168 h (ng/mL)
Express the result in ng/mL but write the number alone.

Q. // returns reported level at 168 h for input CN[C@H]1C(=O)N[C@@H]2Cc3ccc(cc3)Oc3cc4cc(c3O[C@@H]3O[C@H](C(=O)O)[C@@H](O)[C@H](O)[C@H]3NC(=O)CCCCCCCCC(C)C)Oc3ccc(cc3Cl)[C@@H](O)[C@@H]3NC(=O)[C@H](NC(=O)[C@@H]4NC(=O)[C@@H](NC2=O)c2cc(cc(O)c2Cl)Oc2cc1ccc2O)c1ccc(O)c(c1)-c1c(O[C@H]2O[C@H](CO)[C@@H](O)[C@H](O)[C@@H]2O)cc(O)cc1[C@@H](C(=O)NCCCN(C)C)NC3=O
A. 41100

* * *

Test: clinical
Settings: human, in vivo, iv
MEASURED PROPERTY: clearance (mL/min)
Express the result in mL/min but write the number alone.

Q. // returns reported clearance for input CN[C@H]1C(=O)N[C@@H]2Cc3ccc(cc3)Oc3cc4cc(c3O[C@@H]3O[C@H](C(=O)O)[C@@H](O)[C@H](O)[C@H]3NC(=O)CCCCCCCCC(C)C)Oc3ccc(cc3Cl)[C@@H](O)[C@@H]3NC(=O)[C@H](NC(=O)[C@@H]4NC(=O)[C@@H](NC2=O)c2cc(cc(O)c2Cl)Oc2cc1ccc2O)c1ccc(O)c(c1)-c1c(O[C@H]2O[C@H](CO)[C@@H](O)[C@H](O)[C@@H]2O)cc(O)cc1[C@@H](C(=O)NCCCN(C)C)NC3=O [dalbavancin]
A. 0.833

Value source: paper PMC11591545
